Item-by-item account of Emax
TEST_DETAILS: Antiasthamic activity in Wistar rat tracheal ring assessed as reversal of carbachol-induced contraction at 0.1 to 500 uM relative to control
Assay type: functional
RUN_PARAMETERS: Trachea
RECORDED_ENDPOINT: Emax (%)

                            smiles_record  endpoint_unit  recorded_measurement
0                  CCCOc1ccc2ccc(=O)oc2c1              %                   100
1                  Cc1cc(=O)oc2cc(O)ccc12              %                    90
2     Cc1cc(=O)oc2cc(OC(=O)c3ccccc3)ccc12              %                    34
3  CCOC(=O)COc1cc2ccc(=O)oc2cc1OCC(=O)OCC              %                    33
4            CC(=O)Oc1ccc2c(C)cc(=O)oc2c1              %                    62
5        O=C(Oc1ccc2ccc(=O)oc2c1)c1ccccc1              %                    26

---

Item-by-item account of Emax
TEST_DETAILS: Antiasthamic activity in Wistar rat tracheal ring assessed as reversal of carbachol-induced contraction at 0.1 to 500 uM relative to control
Type: functional
RUN_PARAMETERS: Trachea
RECORDED_ENDPOINT: Emax

>>> print(df.to_string())
                                    molecule  recorded_endpoint  recorded_measurement
 0       O=c1ccc2ccc(O)cc2o1 [UMBELLIFERONE]               Emax                   67%
 1        O=c1ccc2cc(O)c(O)cc2o1 [ESCULETIN]               Emax                 47.9%
 2  O=C(Oc1cc2ccc(=O)oc2cc1OC(=O)c1ccccc1)c1ccccc1               Emax                   12%
 3                 CCCOc1ccc2c(C)cc(=O)oc2c1               Emax                  100%
 4  CC(=O)Oc1ccc2ccc(=O)oc2c1 [7-ACETOXYCOUMARIN]               Emax                   16%
 5        COc1cc2ccc(=O)oc2cc1OC [SCOPARONE]               Emax                  100%
 6          COc1ccc2ccc(=O)oc2c1 [HERNIARIN]               Emax                  100%
 7  Cn1c(=O)c2nc[nH]c2n(C)c1=O [THEOPHYLLINE]               Emax                  100%
 8              CCOC(=O)COc1ccc2ccc(=O)oc2c1               Emax                   31%
 9  COc1ccc2c(C)cc(=O)oc2c1 [HYMECROMONE METHYL ETHER]               Emax                  100%
10                  CCOc1cc2ccc(=O)oc2cc1OCC               Emax                  100%
11    CCOc1ccc2ccc(=O)oc2c1 [ETHOXYCOUMARIN]               Emax                  100%
12                CCCOc1cc2ccc(=O)oc2cc1OCCC               Emax                  100%
13           CCOC(=O)COc1ccc2c(C)cc(=O)oc2c1               Emax                   70%
14          CC(=O)Oc1cc2ccc(=O)oc2cc1OC(C)=O               Emax                   77%
15                  CCOc1ccc2c(C)cc(=O)oc2c1               Emax                  100%

The measurements presented in this section are drawn from ChEMBL document CHEMBL3259518.
